Target: Sodium-dependent serotonin transporter (Rattus norvegicus)
Sequence (P31652 whole entry): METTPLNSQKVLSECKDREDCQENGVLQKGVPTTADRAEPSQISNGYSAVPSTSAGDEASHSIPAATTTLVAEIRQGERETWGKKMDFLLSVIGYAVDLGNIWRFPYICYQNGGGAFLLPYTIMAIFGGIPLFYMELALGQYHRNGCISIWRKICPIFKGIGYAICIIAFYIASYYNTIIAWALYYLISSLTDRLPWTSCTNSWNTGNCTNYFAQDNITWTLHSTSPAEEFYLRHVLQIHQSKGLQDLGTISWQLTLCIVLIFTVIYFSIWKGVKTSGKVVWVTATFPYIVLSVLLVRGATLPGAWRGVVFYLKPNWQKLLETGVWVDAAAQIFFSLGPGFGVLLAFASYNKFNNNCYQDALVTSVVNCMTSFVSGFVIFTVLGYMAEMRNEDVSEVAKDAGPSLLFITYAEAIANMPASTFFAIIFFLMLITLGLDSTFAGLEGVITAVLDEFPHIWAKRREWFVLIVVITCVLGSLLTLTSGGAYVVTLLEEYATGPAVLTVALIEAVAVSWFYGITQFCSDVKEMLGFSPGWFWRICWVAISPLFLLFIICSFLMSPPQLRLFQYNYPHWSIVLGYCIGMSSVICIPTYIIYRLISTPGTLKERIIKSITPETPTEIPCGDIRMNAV
Experiment: Displacement of [3H]-5HT from rat SERT expressed in CHO cells incubated for 20 mins by liquid scintillation analysis
Metric name: IC50 (nM)

[[record]]
given_smiles = "O=C(/C=C/c1ccc(O)cc1)NCCCCN(CCCNC(=O)/C=C/c1ccc(O)cc1)C(=O)/C=C\\c1ccc(O)cc1"
readout_value = 740

